Please go through the items and note down their pIC50.
- studyTarget: JAK2 (Homo sapiens (Human))
- Sequence (O60674 whole entry): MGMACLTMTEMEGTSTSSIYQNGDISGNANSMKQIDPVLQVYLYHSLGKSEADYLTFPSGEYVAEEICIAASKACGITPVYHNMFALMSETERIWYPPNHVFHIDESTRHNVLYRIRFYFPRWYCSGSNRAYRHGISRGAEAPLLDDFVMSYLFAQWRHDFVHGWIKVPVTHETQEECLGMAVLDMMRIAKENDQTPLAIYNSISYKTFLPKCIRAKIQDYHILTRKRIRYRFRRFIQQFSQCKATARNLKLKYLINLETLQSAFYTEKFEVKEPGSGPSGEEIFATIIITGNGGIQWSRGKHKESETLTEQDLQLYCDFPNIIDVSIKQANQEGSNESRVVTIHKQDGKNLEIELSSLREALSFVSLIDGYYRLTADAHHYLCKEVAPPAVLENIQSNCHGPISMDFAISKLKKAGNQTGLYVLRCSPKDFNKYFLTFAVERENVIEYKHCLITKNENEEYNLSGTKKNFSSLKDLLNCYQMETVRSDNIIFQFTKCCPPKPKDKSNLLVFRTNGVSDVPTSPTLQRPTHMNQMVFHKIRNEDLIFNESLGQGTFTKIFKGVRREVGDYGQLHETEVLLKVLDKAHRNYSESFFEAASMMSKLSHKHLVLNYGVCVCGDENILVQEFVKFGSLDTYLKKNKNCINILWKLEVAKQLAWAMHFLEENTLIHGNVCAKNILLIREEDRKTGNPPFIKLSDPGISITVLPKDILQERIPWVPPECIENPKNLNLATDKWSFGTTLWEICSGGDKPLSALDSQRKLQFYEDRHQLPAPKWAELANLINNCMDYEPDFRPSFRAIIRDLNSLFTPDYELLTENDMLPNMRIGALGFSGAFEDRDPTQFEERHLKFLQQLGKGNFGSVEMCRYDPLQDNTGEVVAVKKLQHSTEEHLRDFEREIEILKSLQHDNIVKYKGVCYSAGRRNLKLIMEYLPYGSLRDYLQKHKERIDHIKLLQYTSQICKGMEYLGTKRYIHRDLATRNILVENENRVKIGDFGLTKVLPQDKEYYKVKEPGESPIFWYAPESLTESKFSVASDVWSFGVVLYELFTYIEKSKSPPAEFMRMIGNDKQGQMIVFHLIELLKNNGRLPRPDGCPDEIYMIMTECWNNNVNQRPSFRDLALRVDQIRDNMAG
- assayComment: HTRF kinase assay, JAK2
- Format: biochemical
- cond: Table 3
Keep in mind that pIC50 stands for -log10 of concentration in molar terms.

Query :: Using the record for CN(C)C1CCN(c2ccc(Nc3ncc4ccn(-c5cccc(NS(=O)(=O)C(C)(C)C)c5)c4n3)cc2F)CC1 [drawing 65] , report its pIC50.
Result :: 8.36

Query :: # pIC50 lookup, item CN1CCN(c2ccc(Nc3ncc4ccn(-c5cccc(NS(=O)(=O)C6CC6)c5)c4n3)cc2)CC1 [drawing 61]
Result :: 8.60

Query :: // query pIC50 value for entry `CN1CCN(c2ccc(Nc3ncc4scc(-c5cccc(NS(=O)(=O)C(C)(C)C)c5)c4n3)cc2)CC1`
Result :: 8.32

Query :: For the molecule Cc1noc(C)c1-c1cccc(-n2ccc3cnc(Nc4ccc(N5CCN(C)CC5)cc4)nc32)c1 [drawing 67] , what pIC50 is on record?
Result :: 8.52
